Reference source for all entries: the supplement of paper PMC10567573

Each record here notes measured protein stability index.
B1: CSTF3 (parent)
chain: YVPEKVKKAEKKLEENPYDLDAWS

Variants of: B1
test-method-notes: protein stability index of a GFP-peptide fusion (GPS, HEK-293T) (PSI 1-6); higher = more stable;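 also: lentivirally expressed fusions sorted by FACS into six bins by GFP to DsRed ratio, PSI derived from sequencing read proportions per bin multiplied by bin number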
experimental-parameters: c terminus: a fixed tail appended
Give the figure by itself; no unit, no explanation.

[
  {
    "mutation-name": "K7T",
    "protein stability index": 2.94
  },
  {
    "mutation-name": "E4Q",
    "protein stability index": 3.41
  },
  {
    "mutation-name": "S24M",
    "protein stability index": 2.15
  }
]

// query Look up protein stability index: `E4Y`
// result 3.67

// query Look up protein stability index: `Y1T`
// result 4.88

// query Look up protein stability index: `P17A`
// result 2.45

// query Look up protein stability index: `D21F`
// result 2.63

// query Look up protein stability index: `Y1W`
// result 4.24

// query Look up protein stability index: `Y1S`
// result 5.23

// query Look up protein stability index: `L13D`
// result 2.22

// query Look up protein stability index: `L20F`
// result 1.44
